System: SK-MEL-28 melanoma
Experiment: NCI tumour cell line growth inhibition, 48 h; in the data active = GI50 below about 0.43 µM; inactive = the rest
Can you answer with just one of these options? active, inactive

[Q] What outcome does the record of this test show for C=Cc1c(C)c2cc3nc(cc4[nH]c(cc5nc(cc1[nH]2)C(C)=C5CCC(=O)O)c(CCC(=O)OC)c4C)[C@@]1(C)C3=CC=C(C(=O)OC)[C@H]1C(=O)OC ?
[A] inactive

[Q] Could you please tell me the result logged for NS(=O)(=O)c1ccc(N(/C=C/C(=O)C(F)(F)F)CC(=O)c2ccc(Cl)cc2)cc1 in this assay?
[A] inactive

[Q] GET /call?item= C=CCc1cccc(/C=N/NC(=O)CN2CCN(Cc3ccccc3)CC2)c1O returns the recorded outcome of this test.
[A] inactive

[Q] Which outcome was assigned to COc1ccncc1C#Cc1cncc(C(=O)Nc2ccc(CN3CCN(C)CC3)c(C(F)(F)F)c2)c1 in this test?
[A] inactive

[Q] Call for entry COc1cc(C2c3cc4c(cc3C(O)C(CO)C2CO)OCO4)cc(OC)c1OC (configuration not stated) :
[A] inactive

[Q] How did this test come out for CCCCCCNC(=O)c1nc(-c2ccccc2)oc1Cc1ccc(OP(=O)(O)O)cc1 ?
[A] inactive

[Q] Assay outcome for CS(=O)(=O)CCCn1c(=O)c(Oc2ccc(F)cc2F)cc2cnc(NC3CCOCC3)nc21 : what was it?
[A] inactive

[Q] Tell me the recorded outcome of this test for COc1ccc2[nH]cc(-c3nc(-c4c[nH]c5ncccc45)cs3)c2c1 .
[A] inactive

[Q] What is the recorded call for this molecule in the test? O=c1[nH]c(=O)n(C2CC(O)C(CO)O2)cc1CO (configuration not stated)
[A] inactive

[Q] For this molecule, state the assay outcome: COC12C=C/C(=C(/C(=O)OCc3ccncc3)C(=O)CCCCCCCCC3(OC)C=C/C(=C(/C(=O)OCc4ccncc4)C(=O)CCCCCCCC1)O3)O2
[A] active

[Q] Could you check what this test reported for COc1cccc2c1C(=O)c1c(O)c3c(c(O)c1C2=O)CC(O)(/C(C)=N/NC(=O)CCC(=O)N/N=C(\C)C1(O)Cc2c(O)c4c(c(O)c2C(OC2CC(N)C(O)C(C)O2)C1)C(=O)c1c(OC)cccc1C4=O)CC3OC1CC(N)C(O)C(C)O1 (configuration not stated) ?
[A] active

[Q] Please state the recorded outcome for this molecule: CCN(CC)CCOc1ccc(/C=C2\CC3C4CC=C5C[C@@H](O)CC[C@]5(C)C4CC[C@]3(C)C2=O)cc1OC (some centres not stated)
[A] inactive

[Q] Please share the test call associated with Cn1cnc([N+](=O)[O-])c1S(=O)(=O)Oc1ccccc1 .
[A] inactive

[Q] Tell me the recorded outcome of this test for Cc1ccc(/C=C/c2c(C(=O)/C=C/c3ccc(C(F)(F)F)cc3)c(C)nc3ccccc23)cc1 .
[A] inactive

[Q] Record request — test call for COc1ccc(-c2oc(=O)ccc2-c2cc(OC)c(OC)c(OC)c2)cc1F
[A] inactive

[Q] Outcome? COc1cc(CNCCCN2C(=O)c3ccc4c5c(ccc(c35)C2=O)C(=O)N(CCCNCc2cc(OC)c(OC)c(OC)c2)C4=O)cc(OC)c1OC
[A] inactive

[Q] Recorded test outcome, item N#C/C=C(\c1ccc([N+](=O)[O-])cc1)n1nnc2cc(Cl)c(Cl)cc21
[A] inactive

###

Can you tell me TGI for the items I'm about to list?
System: T-47D breast
Assay: NCI tumour cell line growth inhibition, 48 h
Reply with just the number (in µM).

[Q] Would you mind telling me what TGI value was observed for COC(=O)C1C=CN(N(C)C)C2=C1C(=O)c1c(O)cccc1C2=O (stereo unspecified) ?
[A] 6.45

[Q] Quick one: TGI of C=CCCCCCCCCCCC1(O)C=CC2=[N+](CCCCCN=C(N)N)CCCN21 (stereo unspecified) ?
[A] 55.6

[Q] Which TGI is reported for this compound? CC1(C)OC(=C(C#N)C#N)C(C#N)=C1/C=C/c1ccncc1
[A] 6.26

[Q] // returns reported TGI for input Oc1ccc(-c2nc(-c3ccc(F)cc3)c(-c3ccc4ccccc4n3)[nH]2)cc1
[A] 25.1

[Q] Which measured TGI value corresponds to O=C(NCCCN(CCCCN(CCCNC(=O)C(F)(F)F)CCCc1ccccc1)CCCc1ccccc1)C(F)(F)F ?
[A] 3.84

###

Can you tell me TGI for the items I'm about to list?
Tested on: M14 melanoma
Experiment: NCI tumour cell line growth inhibition, 48 h

[Q] Return reported TGI; argument: CCCCn1c(C)c2c(c1C)C(=O)N(CC(O)CN1CCc3ccccc3C1)C2=O (stereo not given)
[A] > 100 µM

[Q] Could you share which TGI value was measured for O=C(CC(O)(C(F)(F)F)C(F)(F)F)c1cc(CC(=O)C(O)(C(F)(F)F)C(F)(F)F)cc(CC(=O)C(O)(C(F)(F)F)C(F)(F)F)c1 ?
[A] > 9.09 µM

[Q] Query: TGI; subject: CC12CC(C#N)(C#N)C(C#N)(CO1)C(=N)O2 (stereo not given)
[A] > 100 µM

[Q] If you can, please state the reported TGI value of CN(CCN(C)C(=S)NN)C(=S)NN .
[A] > 100 µM

[Q] Would you kindly share the measured TGI for CCOC(=O)c1ccc(C(=O)/C(C#N)=C2\CCCN2C)[nH]1 ?
[A] > 100 µM

###

Tested on: SF-295 CNS
Experiment: NCI tumour cell line growth inhibition, 48 h
readout.kind: TGI

[Q] Return TGI measured with SF-295 CNS given this compound: CC(CC(=O)O)C(C(=O)O)C(=O)O (stereo unspecified)
[A] > 100 µM

[Q] Give SF-295 CNS TGI for CN(C)c1c([O-])c(=[N+](C)C)c1=O
[A] > 100 µM

[Q] What measured TGI is associated with CCOP(=O)(O)C(C)(C)NC on SF-295 CNS?
[A] > 100 µM

[Q] Lab note: need TGI with SF-295 CNS for entry CS(=O)(=O)CCCn1c(=O)c(Oc2ccc(F)cc2F)cc2cnc(NC3CCOCC3)nc21 , please look it up.
[A] > 25 µM

[Q] Which TGI is reported with SF-295 CNS for this entry: CC[C@@]12N=C(N(C)C)C[C@]1(O)ON=C2C ?
[A] > 100 µM

[Q] Form field - read-out: TGI; system: SF-295 CNS; submitted item: COc1cc(C2SCC(=O)N2c2ccc(Cl)c(Cl)c2)cc(OC)c1OC (stereo unspecified)
[A] > 100 µM

[Q] So what TGI did CCN(CC)CCOc1ccc(/C=C2\CC3C4CC=C5C[C@@H](O)CC[C@]5(C)C4CC[C@]3(C)C2=O)cc1OC (stereo partly specified) get with SF-295 CNS?
[A] 10.3 µM

[Q] Form field - read-out: TGI; system: SF-295 CNS; submitted item: O=[N+]([O-])c1ccc(S(=O)(=O)N=Ic2ccccc2)cc1
[A] > 100 µM

[Q] // lookup TGI | system=SF-295 CNS | key= Cc1csc(Nc2nc(-c3cccc(Br)c3)nc(C(Cl)(Cl)Cl)n2)n1
[A] > 100 µM

[Q] Find TGI (SF-295 CNS) for the entry CCOC(=O)C1=C(N)Oc2ccc(Br)cc2C1C(C#N)C(=O)OCC (stereo unspecified)
[A] > 100 µM

[Q] API: value(readout= TGI, system= SF-295 CNS, query= CCOC(=O)c1ccc(C(=O)/C(C#N)=C2\CCCN2C)[nH]1 )
[A] > 100 µM

###

Tested on: IGROV1 ovarian
Experiment: NCI tumour cell line growth inhibition, 48 h
Can you tell me GI50 for the items I'm about to list?

[Q] Which measured GI50 value corresponds to CC12CCC3C(CCC4=CC(O)CCC43C=O)C1(O)CCC2c1ccc(=O)oc1 (stereo not given) ?
[A] 0.05 µM

[Q] Need GI50, item COC12C=C/C(=C(/C(=O)OCc3ccncc3)C(=O)CCCCCCCCC3(OC)C=C/C(=C(/C(=O)OCc4ccncc4)C(=O)CCCCCCCC1)O3)O2
[A] 0.316 µM

[Q] Entry N#C/C=C(\c1ccc([N+](=O)[O-])cc1)n1nnc2cc(Cl)c(Cl)cc21 has what GI50?
[A] 1.82 µM

[Q] Query: GI50; subject: CCCCCCC[CH2][Sn]1([CH2]CCCCCCC)[O]C(=O)c2cccnc2[S]1
[A] > 100 µM

[Q] Sample O=c1cc2oc3cc(O)c(O)cc3c(-c3ccccc3O)c-2cc1O — what was its GI50?
[A] 6.73 µM

###

Please provide measured TGI for the entries that follow.
System: ACHN renal
Test: NCI tumour cell line growth inhibition, 48 h

[Q] I'd like to know its TGI. The molecule in question is C=CCc1cccc(/C=N/NC(=O)CN2CCN(Cc3ccccc3)CC2)c1O
[A] 12 µM

[Q] Entry CCCCCC(/C=C/C1CCC(=O)C1CC#C[Si](C)(C)C)OCc1ccccc1 (stereo not given) has what TGI?
[A] 31.6 µM

[Q] Return reported TGI; argument: CC(=C\c1ccccc1)/C=C(\C#N)C(N)=O
[A] > 10 µM

[Q] Need TGI, item CCN(CC)C(=S)SS(=O)(=O)c1ccc(F)cc1
[A] > 100 µM

[Q] Sample COc1ccncc1C#Cc1cncc(C(=O)Nc2ccc(CN3CCN(C)CC3)c(C(F)(F)F)c2)c1 — what was its TGI?
[A] > 100 µM

[Q] Which TGI is reported for this molecule? COc1ccccc1N1CCN(CCCn2c(=O)c3c(OC)nc(C)cc3c(=O)n2-c2ccccc2)CC1
[A] > 100 µM

[Q] Query (molecule): C[C@H]1[C@H](C)CC[C@]2(C(=O)OCCOCCOCC[P+](c3ccccc3)(c3ccccc3)c3ccccc3)CC[C@]3(C)C(=CC[C@@H]4[C@@]5(C)CC[C@H](OC(=O)C(Cl)Cl)C(C)(C)[C@@H]5CC[C@]43C)[C@H]12 ; field requested: TGI
[A] 1.26 µM

[Q] Entry under review: COc1ccc(/C(=N\NC(=O)C(N)=O)C(c2ccc(OC)cc2)C2(O)C(=O)Nc3c(Cl)cccc32)cc1 (stereo not given) . Reported TGI?
[A] > 100 µM

[Q] Which TGI reading was recorded for the molecule CN(C)/C=N/n1c2ccccc2c2ccccc21 ?
[A] > 100 µM

[Q] I would be grateful if you could share the reported TGI for COc1ccc(C(O)c2nccn2C)c(OC)c1 (stereo not given) .
[A] > 100 µM

[Q] Recorded TGI for Cc1c(O)c(C)c2c(C)cn(C(=O)C(C)(C)C)c2c1C , please?
[A] 35.3 µM

[Q] Entry Cc1cc(OCc2nnc3n2N=C(c2cc(F)c(Cl)cc2Cl)/C(=C/c2ccc(Cl)cc2)S3)ccc1Cl has what TGI?
[A] > 100 µM

[Q] Would you mind telling me what TGI value was observed for NCCCNCCCCNCCCN ?
[A] 9.22 µM

[Q] GET /values?readout=TGI&item= Cc1ccc(Cl)cc1Nc1nc(C(F)(F)F)ccc1C(=O)N1CCN(c2cccc(Cl)c2)CC1
[A] > 100 µM

[Q] May I ask what TGI has been recorded for CC(=O)Nc1ccc2cc(C)c(=O)[nH]c2n1 ?
[A] > 100 µM

[Q] Please give the measured TGI for this molecule: Oc1cc(O)c2c(c1)OC(c1ccc(O)c(O)c1)C(OC1(c3cc(O)c(O)c(O)c3)Oc3cc(O)cc(O)c3C(O)C1O)C2 (stereo not given)
[A] > 100 µM

[Q] Looking for the measured TGI of O=S(=O)(O)c1ccc(N=Nc2ccc(N=Nc3c(O)ccc4ccccc34)cc2)cc1 , can you help?
[A] > 100 µM

[Q] For the molecule shown here, Cc1c(Cl)cccc1N1C(=O)C(Cl)=C(Cl)C1=O , give the reported TGI.
[A] > 100 µM

[Q] What does the record list as TGI for COc1ccc(NC(=O)/C(N=O)=C(/C)O)cc1 ?
[A] > 100 µM

[Q] Request the reported TGI associated with CC(=O)n1c2c(c(=O)n1-c1ccccc1)S(=O)CCC2 (stereo not given)
[A] > 100 µM
